assay: NCI Yeast Anticancer Drug Screen. Data for the cln2 rad14 strain (AID 165);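 also: 0% = growth equal to vehicle treated cultures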; conditions: S. cerevisiae cln2 rad14 strain, at 50.0 µM, stronger effect = higher value
The panel holds about 79,000 compounds, 15% with a hit somewhere; the sample as a whole holds those more often.
READOUT_NAME: growth inhibition (%)
Unit % implied. Number only.

// solved cases for growth inhibition follow
MOLECULE	U	growth inhibition
CN(C)CC1CCCCCCC1=O (configuration not stated)	%	-8.1
Oc1c2c(c3cccc4cccc1c43)=Nc1ccccc1S2	%	-23.6
CCCCCCCNC(C)=O	%	10.1
CC/C(Cl)=N\OC(=O)Nc1ccc(F)cc1F	%	7.05
O=C1c2ccccc2C(=O)N1CN1CCC(CCCC2CCN(CN3C(=O)c4ccccc4C3=O)CC2)CC1	%	-11.1

Field request: growth inhibition | item: `O=[N+]([O-])C(CO)(CO)c1ccccc1`
18.8

// query growth inhibition value for entry `S=c1[nH]c2ccccc2n2cccc12`
12.8

Returns the measured growth inhibition for the input molecule. Input: `Cc1ccc(S(=O)(=O)NCCN)cc1`
-19.5

Consider the molecule `O=C1c2ccccc2C(=O)N1CCc1ccccn1` and give its measured growth inhibition.
-27.1

# get_value(readout='growth inhibition', item= CC1(C)OC(C(CCl)OS(C)(=O)=O)C(C(CCl)OS(C)(=O)=O)O1 (configuration not stated) )
24.9

// returns reported growth inhibition for input Cn1cc(C2NC(=O)c3ccccc3N2)c2ccccc21 (configuration not stated)
12

Reported growth inhibition, molecule `O=C1c2cc3c(-c4ccccc4)oc(-c4ccccc4)c3cc2C(=O)c2c(O)ccc(O)c21` : ____
-4.7
